Target: human GPR84 receptor (Homo sapiens)
Construct: host or cells: HEK293 cells, transient transfection
Assay method text: Gαi biosensor BRET assay in HEK293 cells transfected with GPR84, stimulated with the GPR84 agonist ZQ-16
Type: cell-based
Test parameters: HEK293, single concentration, concentration class F = 10 μM, 200 nmol/L ZQ-16
Property measured: inhibition at 10 µM

The examples below pair each entry with its known result.
O=C(Cn1cncc1-c1ncc(C#CC2CC2)cc1OC1CC1)N1CCCC1 ... ≤ 25%
Cn1nccc1-c1cnc(-c2cn(CC3OCC4(CC4)CO3)nn2)c(OC2CC2)c1 ... 50 to 75%

Next:
[ask] What value of measured inhibition at 10 µM is listed for CCN(CC)c1cc(N2CC(C)(CO)C2)ccc1-c1cn(CC2OCC3(CC3)CO2)nn1 ?
[reply] > 75%

====

Target: human GPR84 receptor (Homo sapiens)
Assay method text: Gαi biosensor BRET assay in HEK293 cells transfected with GPR84, stimulated with the GPR84 agonist ZQ-16
Test parameters: 200 nmol/L ZQ-16
pIC50: −log10 of the molar value.
Property measured: pIC50

Check out these entries, answers already filled in.
Cc1cc(C#CC2CC2)ccc1-c1nnc(-c2cn(CC3OCC4(CC4)CO3)nn2)o1 ... 6.00 to 6.52
OC1CC2(C1)CN(c1cnc(-c3cn(CC4OCC5(CC5)CO4)nn3)c(OC3CC3)c1)C2 (centres unmarked) ... ≥ 6.52
C(#CC1CC1)c1cnc(-c2cnn(CC3OCC4(CC4)CO3)c2)c(OC2CC2)c1 ... 6.00 to 6.52
c1nc(-c2cn(CC3OCC4(CC4)CO3)nn2)c(OC2CC2)cc1N1CC2(CC2)C1 ... 6.00 to 6.52
Cn1ccc(-c2cnc(-c3cn(CC4OCC5(CC5)CO4)nn3)c(OC3CC3)c2)n1 ... ≥ 6.52

[ask] Which measured pIC50 value corresponds to CCc1cc(C#CCN)ccc1-c1cn(CC2OCC(C)(C)CO2)nn1 ?
[reply] 6.00 to 6.52

[ask] Item: CN(C)c1cc(C#CC2(O)CC2)ccc1-c1cn(CC2OCC(C)(C)CO2)nn1
[reply] ≥ 6.52

[ask] Please give the result for Cn1nnc(-c2cnc(-c3cn(CC4OCC5(CC5)CO4)nn3)c(OC3CC3)c2)n1 too.
[reply] ≥ 6.52

====

Listing: inhibition at 2 µM of selected compounds
Target: human GPR84 receptor (Homo sapiens)
Construct: host or cells: HEK293 cells, transient transfection
Assay method text: Gαi biosensor BRET assay in HEK293 cells transfected with GPR84, stimulated with the GPR84 agonist ZQ-16
Type: cell-based
Test parameters: HEK293, single concentration, concentration class A = 2 μM, 200 nmol/L ZQ-16

Below: 3 compounds and their reported inhibition at 2 µM.
C(#CC1CCC1)c1cnc(-c2cn(CC3OCC4(CC4)CO3)nn2)c(OC2CC2)c1 ... > 75%
CC1(C)COC(Cn2cc(-c3ncc(C(F)(F)F)cc3OC3CC3)nn2)OC1 ... 50 to 75%
c1nc(-c2cn(CC3OCC4(CC4)CO3)nn2)c(OC2CC2)cc1-c1nnn[nH]1 ... > 75%

Then there is this compound:
[ask] I'd like to know its inhibition at 2 µM. The compound in question is CN(C)c1cc(N2CC3(COC3)C2)c(F)cc1-c1cn(CC2OCC3(CC3)CO2)nn1
[reply] > 75%

====

inhibition at 10 µM: recorded values
Target: human GPR84 receptor (Homo sapiens)
Construct: host or cells: HEK293 cells, transient transfection
Assay method text: Gαi biosensor BRET assay in HEK293 cells transfected with GPR84, stimulated with the GPR84 agonist ZQ-16
Type: cell-based
Test parameters: HEK293, single concentration, concentration class F = 10 μM, 200 nmol/L ZQ-16

Solved cases below.
Cc1ccc(C#CC2CC2)cc1-c1nnc(-c2cn(CC(=O)N(C)C)nn2)o1 ... ≤ 25%
Cn1cc(-c2cnc(-c3cn(CC4OCC5(CC5)CO4)nn3)c(OC3CC3)c2)cn1 ... > 75%
CN(C)C(=O)Cn1cc(-c2nnc(-c3cc(C#CC4CC4)ccc3F)o2)nn1 ... ≤ 25%

[ask] Suppose we examine the compound CC1(C)COC(Cn2cc(Cc3cc(C#CC4CC4)ccc3C(F)(F)F)nn2)OC1 ; what inhibition at 10 µM value has been reported?
[reply] > 75%

[ask] Another compound to look at: CN(C)C(=O)Cn1cnc(-c2ccc(N3CC(C)(CO)C3)cc2N(C)C)c1
[reply] 50 to 75%

[ask] What would you report for O=C(NC1CC1)c1cnc(-c2cn(CC3OCC4(CC4)CO3)nn2)c(OC2CC2)c1 ?
[reply] 25 to 50%

[ask] Okay, and C(#CC1CC1)c1cnc(-c2cn(Cc3cc4ccccc4[nH]3)nn2)c(OC2CC2)c1 ?
[reply] ≤ 25%

[ask] Subsequent entry: CN(C)C(=O)c1cnc(-c2cn(CC3OCC4(CC4)CO3)nn2)c(OC2CC2)c1
[reply] 25 to 50%

====

Target: human GPR84 receptor (Homo sapiens, UniProt Q9NQS5)
Construct: host or cells: HEK293 cells, transient transfection
Sequence (Q9NQS5 whole entry): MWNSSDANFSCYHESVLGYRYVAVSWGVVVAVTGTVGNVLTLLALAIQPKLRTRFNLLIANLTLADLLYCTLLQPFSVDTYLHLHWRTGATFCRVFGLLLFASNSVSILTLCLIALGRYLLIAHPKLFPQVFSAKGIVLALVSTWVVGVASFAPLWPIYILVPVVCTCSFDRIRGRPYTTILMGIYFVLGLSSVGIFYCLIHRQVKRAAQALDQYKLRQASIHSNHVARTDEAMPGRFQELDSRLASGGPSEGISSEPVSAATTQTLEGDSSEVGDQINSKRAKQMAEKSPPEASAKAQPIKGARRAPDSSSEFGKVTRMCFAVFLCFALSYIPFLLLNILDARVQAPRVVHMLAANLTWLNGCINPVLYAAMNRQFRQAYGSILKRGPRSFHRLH
Assay method text: Gαi biosensor BRET assay in HEK293 cells transfected with GPR84, stimulated with the GPR84 agonist ZQ-16
Assay type: cell-based
Test parameters: HEK293, single concentration, concentration class F = 10 μM, 200 nmol/L ZQ-16
Reported inhibition at 10 µM by item:

Clc1cc(N2CCN(Cc3ccccn3)CC2)cnc1-c1c[nH]cn1 ... ≤ 25%

[ask] Sample O=C(Cn1cnc(-c2ncc(C#CC3CC3)cc2OC2CC2)c1)N1CCCC1 — what was its inhibition at 10 µM?
[reply] 50 to 75%

[ask] Now this one: CC(C)(O)C#Cc1cnc(-c2cn(CC3OCC(C)(C)CO3)nn2)c(OC2CC2)c1
[reply] > 75%

====

Target: human GPR84 receptor (Homo sapiens)
Assay method text: Gαi biosensor BRET assay in HEK293 cells transfected with GPR84, stimulated with the GPR84 agonist ZQ-16
Test parameters: 200 nmol/L ZQ-16
Item-by-item account of IC50

Reference set, count: 3
OC1(C#Cc2cnc(-c3cn(CC4OCC5(CC5)CO4)nn3)c(OC3CC3)c2)CC1 [Compound I-35] ... ≤ 0.3 µM
Cn1cc(-c2cnc(-c3cn(CC4OCC5(CC5)CO4)nn3)c(OC3CC3)c2)nn1 [Compound I-227] ... ≤ 0.3 µM
CC(=O)NCC#Cc1cnc(-c2cn(CC3OCC(C)(C)CO3)nn2)c(OC2CC2)c1 [Compound I-15] ... ≤ 0.3 µM

Kindly consider the entry below.
[ask] Value lookup for IC50; key = CC1(C)CN(CC#Cc2cnc(-c3cn(CC4OCC5(CC5)CO4)nn3)c(CC3CC3)c2)C1 [Compound I-118]
[reply] ≤ 0.3 µM

====

inhibition at 10 µM overview
Target: human GPR84 receptor (Homo sapiens)
Construct: host or cells: HEK293 cells, transient transfection
Assay method text: Gαi biosensor BRET assay in HEK293 cells transfected with GPR84, stimulated with the GPR84 agonist ZQ-16
Type: cell-based
Test parameters: HEK293, single concentration, concentration class F = 10 μM, 200 nmol/L ZQ-16

These solved cases illustrate the format of a correct answer.
CN1CCN(C(=O)Cn2cc(-c3ncc(C#CC4CC4)cc3OC3CC3)nn2)CC1 [Compound I-266] ... 25 to 50%
CC1(C)COC(Cn2ncc(C#Cc3ccncc3)n2)OC1 [Compound I-43] ... ≤ 25%
NC(=O)c1cnc(-c2cn(CC3OCC4(CC4)CO3)nn2)c(OC2CC2)c1 [Compound I-204] ... 50 to 75%
CC1(C)COC(Cn2cc(-c3ncc(CC#N)cc3OC3CC3)nn2)OC1 [Compound I-40] ... 50 to 75%
CN(C)C(=O)Cn1cc(-c2ncc(C#CC3CC3)cc2OC2CC2)cn1 [Compound I-216] ... ≤ 25%

[ask] // lookup inhibition at 10 µM for CCc1cc(C#CCNS(C)(=O)=O)ccc1-c1cn(CC2OCC(C)(C)CO2)nn1 [Compound I-1]
[reply] > 75%

[ask] Also need O=C(Cn1cc(-c2ncc(C#CC3(O)CC3)cc2OC2CC2)nn1)N1CCCC1 [Compound I-250] , thanks.
[reply] > 75%

[ask] Another: O=C(Cn1cc(-c2ncc(C#CC3CC3)cc2OC2CC2)nn1)N1CCCC1 [Compound I-64]
[reply] > 75%

[ask] // query: O=C(Cn1cc(-c2ncc(C#CC3CC3)cc2OC2CC2)nn1)N1C[C@@H](O)[C@@H](O)C1 [Compound I-248]
[reply] > 75%

[ask] Thanks! And O=C1OC(c2ccc(C#CC3CC3)cc2)CN1CC1CCCCO1 (centres unmarked) [Compound I-65] ?
[reply] 25 to 50%

[ask] Input CC(O)C1CN(c2ccc(-c3cn(CC4OCC5(CC5)CO4)nn3)c(N(C)C)c2)C1 (centres unmarked) [Compound I-5]
[reply] > 75%

[ask] What would you report for CC1(C)COC(Cn2cc(C#Cc3ccncc3)nn2)OC1 [Compound I-32] ?
[reply] ≤ 25%

[ask] One more compound: O=C(Cn1cc(-c2ncc(C#CC3CC3)cc2OC2CC2)nn1)N1CCCCC1 [Compound I-267]
[reply] > 75%

[ask] Cc1cc(N2CCN(Cc3ccccn3)CC2)ccc1-c1cn(CC2OCC3(CC3)CO2)cn1 [Compound I-139] , same question.
[reply] > 75%
